System tested: T1, EsCas13d, nuclease-dead (Eubacterium siraeum, UniProt B0MS50, R295A;H300A;R849A;H854A)
T1 sequence: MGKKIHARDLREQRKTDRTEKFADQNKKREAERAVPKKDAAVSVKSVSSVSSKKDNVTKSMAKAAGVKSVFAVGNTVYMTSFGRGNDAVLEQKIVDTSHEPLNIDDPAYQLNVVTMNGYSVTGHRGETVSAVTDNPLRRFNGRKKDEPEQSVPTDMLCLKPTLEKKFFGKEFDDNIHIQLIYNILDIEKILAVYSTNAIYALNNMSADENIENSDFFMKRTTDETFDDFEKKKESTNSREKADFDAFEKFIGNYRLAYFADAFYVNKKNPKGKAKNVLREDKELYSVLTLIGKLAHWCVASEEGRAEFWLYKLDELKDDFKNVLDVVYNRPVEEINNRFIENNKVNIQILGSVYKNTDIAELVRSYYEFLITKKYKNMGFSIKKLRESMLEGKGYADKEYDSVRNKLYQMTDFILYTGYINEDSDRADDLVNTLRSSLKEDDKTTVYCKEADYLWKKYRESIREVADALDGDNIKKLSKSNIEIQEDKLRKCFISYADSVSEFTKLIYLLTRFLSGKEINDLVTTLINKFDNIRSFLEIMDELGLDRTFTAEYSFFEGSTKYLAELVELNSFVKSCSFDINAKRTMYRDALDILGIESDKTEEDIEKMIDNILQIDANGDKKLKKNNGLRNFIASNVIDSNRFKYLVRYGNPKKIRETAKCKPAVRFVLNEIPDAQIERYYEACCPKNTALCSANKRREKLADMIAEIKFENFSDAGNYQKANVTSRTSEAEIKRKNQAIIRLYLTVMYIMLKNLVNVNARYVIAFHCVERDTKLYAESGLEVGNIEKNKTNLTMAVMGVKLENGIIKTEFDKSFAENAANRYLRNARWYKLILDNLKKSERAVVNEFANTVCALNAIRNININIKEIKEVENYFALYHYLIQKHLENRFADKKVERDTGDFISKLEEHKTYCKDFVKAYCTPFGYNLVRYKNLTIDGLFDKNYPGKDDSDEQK
Assay text: crRNA (strand 1, pre-loaded); Mg2+; 40 mM Tris-HCl pH 7.5, 150 mM NaCl, 6 mM MgCl2, 1 mM DTT, 0.1% Tween-20, 0.2 mg/ml BSA; 25 C; 10 min per concentration, then washed
Condition notes: tags: His6-TwinStrep-SUMO cleaved; N-terminal SNAP kept (SNAP-Surface 488); label: 3' end held by stalled T7 RNA polymerase
Exercise: for every item that follows, state its recorded Kd.
Please state the figure in nM; there is no need to write the unit.

Reported Kd ( target 1 C2A,C6U (mixed) RNA 1: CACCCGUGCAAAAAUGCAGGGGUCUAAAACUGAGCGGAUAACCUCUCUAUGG RNA 2: GGGAAUGGAUCCACAUCUACGAAUUCGUACCAUAGAGAGGUUAUCUGCUAACCGAGAUCGGAAGAGCACACGU ) = 5.88

Sample target 1 C4A (mixed) RNA 1: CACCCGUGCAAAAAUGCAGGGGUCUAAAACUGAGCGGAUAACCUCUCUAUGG RNA 2: GGGAAUGGAUCCACAUCUACGAAUUCGUACCAUAGAGAGGUUAUCCGAUCACCGAGAUCGGAAGAGCACACGU ; Kd observed: 3.8

Record target 2 MT 5'PFS GUG 3'PFS UCC (mixed) RNA 1: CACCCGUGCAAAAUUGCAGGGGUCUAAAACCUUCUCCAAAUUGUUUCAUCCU RNA 2: GGGAAUGGAUCCACAUCUACGAAUUCGUGAGGAUGAAACAAUUUGGAGAAGUCCAGAUCGGAAGAGCACACGU , field Kd: 42

Kd reading for target 1 MT 5'PFS UAC 3'PFS UCU (mixed) RNA 1: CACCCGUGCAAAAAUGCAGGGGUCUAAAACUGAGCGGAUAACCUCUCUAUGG RNA 2: GGGAAUGGAUCCACAUCUACGAAUUCUACCCAUAGAGAGGUUAUCCGCUCAUCUAGAUCGGAAGAGCACACGU : 9.9
